Some substances, each annotated with its measured RBC count.
assay: Hematology assays in cynomolgus monkeys (Example 46); format: in vivo; conditions: Day 45
Strand notation (5' to 3'): a small letter for the sugar, then the base; units joined by * are phosphorothioate-linked, units joined directly phosphodiester-linked; [ ] holds rarer units or linkages, { } end groups; capitals alone tell only the bases. e = 2'-O-(2-methoxyethyl) (MOE); [5mC] = 5-methylcytosine; d = 2'-deoxy (DNA)

{"columns": ["SUBSTANCE", "RBC count (µL⁻¹)"],
 "data": [
  ["ISIS 449710: 3-8-3, 4-8-4, 2-10-2, 3-10-3 or 4-10-4 MOE microwalk gapmer (Table 46) (antisense e[5mC]*eA*e[5mC]*dA*dG*dT*dT*dT*d[5mC]*dT*dG*dG*d[5mC]*eA*eG*eG)", "5.7e+06"],
  ["ISIS 416858: MOE gapmer, nucleobases 1275 to 1318 of SEQ ID NO: 1 (Table 8) (antisense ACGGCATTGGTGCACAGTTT; MOE gapmer, wing and gap sizes not given here)", "5.5e+06"],
  ["ISIS 449709: 3-8-3, 4-8-4, 2-10-2, 3-10-3 or 4-10-4 MOE microwalk gapmer (Table 46) (antisense eG*e[5mC]*eA*e[5mC]*dA*dG*dT*dT*dT*d[5mC]*dT*dG*dG*d[5mC]*eA*eG*eG*e[5mC])", "5.7e+06"],
  ["ISIS 449707: 3-8-3, 4-8-4, 2-10-2, 3-10-3 or 4-10-4 MOE microwalk gapmer (Table 46) (antisense e[5mC]*eA*e[5mC]*eA*dG*dT*dT*dT*d[5mC]*dT*dG*dG*e[5mC]*eA*eG*eG)", "5.9e+06"],
  ["ISIS 449711: 3-8-3, 4-8-4, 2-10-2, 3-10-3 or 4-10-4 MOE microwalk gapmer (Table 46) (antisense eA*e[5mC]*dA*dG*dT*dT*dT*d[5mC]*dT*dG*dG*d[5mC]*eA*eG)", "5.4e+06"],
  ["ISIS 416850: MOE gapmer, nucleobases 1275 to 1318 of SEQ ID NO: 1 (Table 8) (antisense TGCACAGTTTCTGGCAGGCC; MOE gapmer, wing and gap sizes not given here)", "5.7e+06"],
  ["ISIS 445522: 5-8-5 or 6-8-6 MOE microwalk gapmer (Table 44) (antisense eG*e[5mC]*eA*e[5mC]*eA*dG*dT*dT*dT*d[5mC]*dT*dG*dG*e[5mC]*eA*eG*eG*e[5mC])", "5.7e+06"],
  ["ISIS 449708: 3-8-3, 4-8-4, 2-10-2, 3-10-3 or 4-10-4 MOE microwalk gapmer (Table 46) (antisense eA*e[5mC]*eA*dG*dT*dT*dT*d[5mC]*dT*dG*dG*e[5mC]*eA*eG)", "6e+06"],
  ["ISIS 445531: 5-8-5 or 6-8-6 MOE microwalk gapmer (Table 44) (antisense eG*eG*e[5mC]*eA*eT*dT*dG*dG*dT*dG*d[5mC]*dA*d[5mC]*eA*eG*eT*eT*eT)", "5.5e+06"]
]}

====

conditions: mouse, in vivo, sc, 50 mg/kg
e = 2'-O-(2-methoxyethyl) (MOE); d = 2'-deoxy (DNA)
REPORTED_PROPERTY: BUN (mg/dL)

{"columns": ["SUBSTANCE", "QUANTITATIVE_READOUT"],
 "data": [
  ["ISIS 416862: MOE gapmer, nucleobases 1275 to 1318 of SEQ ID NO: 1 (Table 8) (antisense AGCGGACGGCATTGGTGCAC; MOE gapmer, wing and gap sizes not given here)", 21],
  ["ISIS 412224: 5-10-5 MOE gapmer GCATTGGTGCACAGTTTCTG (sugars from the 5' end e5 d10 e5, backbone and methylation of C not given here)", 29],
  ["ISIS 416859: MOE gapmer, nucleobases 1275 to 1318 of SEQ ID NO: 1 (Table 8) (antisense GACGGCATTGGTGCACAGTT; MOE gapmer, wing and gap sizes not given here)", 18],
  ["ISIS 416865: MOE gapmer, nucleobases 1275 to 1318 of SEQ ID NO: 1 (Table 8) (antisense TGGCAGCGGACGGCATTGGT; MOE gapmer, wing and gap sizes not given here)", 20],
  ["ISIS 416861: MOE gapmer, nucleobases 1275 to 1318 of SEQ ID NO: 1 (Table 8) (antisense GCGGACGGCATTGGTGCACA; MOE gapmer, wing and gap sizes not given here)", 23]
]}

====

assay: Bleeding assay, Surgicutt Jr. device (Example 45); type: in vivo, cynomolgus monkeys; parameters: unit not given here; details: day 78; escalating dose regimen
Some substances, each annotated with its measured bleeding time.

{"columns": ["SUBSTANCE", "bleeding time"],
 "data": [
  ["ISIS 416858: MOE gapmer, nucleobases 1275 to 1318 of SEQ ID NO: 1 (Table 8) (antisense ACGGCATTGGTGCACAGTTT; MOE gapmer, wing and gap sizes not given here)", 186],
  ["ISIS 416850: MOE gapmer, nucleobases 1275 to 1318 of SEQ ID NO: 1 (Table 8) (antisense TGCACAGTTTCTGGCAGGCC; MOE gapmer, wing and gap sizes not given here)", 203],
  ["ISIS 417002: MOE gapmer, nucleobases 1275 to 1318 of SEQ ID NO: 1 (Table 8) (antisense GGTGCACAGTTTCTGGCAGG; MOE gapmer, wing and gap sizes not given here)", 163],
  ["ISIS 416864: MOE gapmer, nucleobases 1275 to 1318 of SEQ ID NO: 1 (Table 8) (antisense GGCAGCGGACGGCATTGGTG; MOE gapmer, wing and gap sizes not given here)", 170],
  ["ISIS 416838: MOE gapmer, nucleobases 1018 to 1042 of SEQ ID NO: 1 (Table 6) (antisense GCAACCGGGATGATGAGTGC; MOE gapmer, wing and gap sizes not given here)", 145]
]}

====

assay: Hematology assays in cynomolgus monkeys (Example 45); type: in vivo; settings: day 78; escalating dose regimen

{"columns": ["SUBSTANCE", "UNIT_DESCRIPTOR", "WBC count"],
 "data": [
  ["ISIS 416858: MOE gapmer, nucleobases 1275 to 1318 of SEQ ID NO: 1 (Table 8) (antisense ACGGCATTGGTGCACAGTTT; MOE gapmer, wing and gap sizes not given here)", "µL⁻¹", 11000],
  ["ISIS 416838: MOE gapmer, nucleobases 1018 to 1042 of SEQ ID NO: 1 (Table 6) (antisense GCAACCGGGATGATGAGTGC; MOE gapmer, wing and gap sizes not given here)", "µL⁻¹", 11000],
  ["ISIS 417002: MOE gapmer, nucleobases 1275 to 1318 of SEQ ID NO: 1 (Table 8) (antisense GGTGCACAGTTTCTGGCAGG; MOE gapmer, wing and gap sizes not given here)", "µL⁻¹", 9000],
  ["ISIS 416850: MOE gapmer, nucleobases 1275 to 1318 of SEQ ID NO: 1 (Table 8) (antisense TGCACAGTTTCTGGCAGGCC; MOE gapmer, wing and gap sizes not given here)", "µL⁻¹", 12000],
  ["ISIS 416864: MOE gapmer, nucleobases 1275 to 1318 of SEQ ID NO: 1 (Table 8) (antisense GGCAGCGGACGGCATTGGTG; MOE gapmer, wing and gap sizes not given here)", "µL⁻¹", 11000]
]}

====

Some substances, each annotated with its measured basophils.
Assay: Hematology assays in cynomolgus monkeys (Example 45)
Format: in vivo
Settings: day 29
Procedure: Groups, each consisting of two male and three female monkeys, were injected subcutaneously with ISIS 416838, ISIS 416850, ISIS 416858, ISIS 416864, or ISIS 417002 in escalating doses. […] Body weights were measured weekly. […]
REPORTED_PROPERTY: basophils (%)

{"columns": ["SUBSTANCE", "UNIT_DESCRIPTOR", "QUANTITATIVE_READOUT"],
 "data": [
  ["ISIS 416858: MOE gapmer, nucleobases 1275 to 1318 of SEQ ID NO: 1 (Table 8) (antisense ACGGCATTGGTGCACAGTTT; MOE gapmer, wing and gap sizes not given here)", "%", 0.2],
  ["ISIS 416850: MOE gapmer, nucleobases 1275 to 1318 of SEQ ID NO: 1 (Table 8) (antisense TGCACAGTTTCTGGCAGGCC; MOE gapmer, wing and gap sizes not given here)", "%", 0.2],
  ["ISIS 417002: MOE gapmer, nucleobases 1275 to 1318 of SEQ ID NO: 1 (Table 8) (antisense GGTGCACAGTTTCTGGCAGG; MOE gapmer, wing and gap sizes not given here)", "%", 0.2],
  ["ISIS 416838: MOE gapmer, nucleobases 1018 to 1042 of SEQ ID NO: 1 (Table 6) (antisense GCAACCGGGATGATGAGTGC; MOE gapmer, wing and gap sizes not given here)", "%", 0.2],
  ["ISIS 416864: MOE gapmer, nucleobases 1275 to 1318 of SEQ ID NO: 1 (Table 8) (antisense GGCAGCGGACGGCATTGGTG; MOE gapmer, wing and gap sizes not given here)", "%", 0.3]
]}
